Below, each entry is listed alongside its reported Kp.
- Assay info: in vivo
Property label: Kp

N[C@@H](Cc1ccc(N(CCCl)CCCl)cc1)C(=O)O ... 0.1
O=C(O)CCCc1ccc(N(CCCl)CCCl)cc1 ... 0.02
CC(C)(C)OC(=O)CCCc1ccc(N(CCCl)CCCl)cc1 ... 0.7

Sourced from patent US4835182A
